ASSAY NOTES: viability loss with induced miR-34 in A549 – imaging, A549 dox-inducible miR-34, nuclei and caspase counts, primary screen (AID 1347080); also: test concentration not given here
CONDITION LABEL: A549 miR-34 inducible, Hoechst nuclei count, 48 h; measured here: total cells without miR-34 induction

COMPOUND	cell count
O=C(NCc1ccccc1)c1csc(Nc2ccncn2)n1	5440
Cc1nc2c(c(=O)[nH]1)CSCC2	9230
O=P(O)(O)OC1[C@H](OP(=O)(O)O)[C@H](O)C(O)[C@H](O)[C@H]1OP(=O)(O)O (stereo not given in full)	6080
CNC(=O)c1c(F)cccc1Nc1nc(Nc2cc3c(cc2OC)CCN3C(=O)CN(C)C)nc2[nH]ccc12	5750
Cc1ccccc1N=Nc1ccc(NC(=O)c2ccnn2C)c(C)c1	5950

src = PubChem BioAssay
